Format: in vivo, human
Details: human, plasma, po, 600 mg
experimental_readout: AUC(0-inf) (ng·h/mL)
Lab book: enter the figure in ng·h/mL, no units written.

Query: Record request: AUC(0-inf) value, item [H]/N=C(/N)c1ccc(NCc2nc3cc(C(=O)N(CCC(=O)O)c4ccccn4)ccc3n2C)cc1
Reply: 2230

###

Format: in vivo, human
Details: human, plasma, po, 150 mg
experimental_readout: AUC(0-inf)
Include the unit after the number when you answer.

Query: Record request: AUC(0-inf) value, item [H]/N=C(/N)c1ccc(NCc2nc3cc(C(=O)N(CCC(=O)O)c4ccccn4)ccc3n2C)cc1 [dabigatran]
Reply: 540 ng·h/mL

###

Format: in vivo, human
Details: human, plasma, po, 600 mg
experimental_readout: Tmax (h)
Lab book: enter the figure in h, no units written.

Query: Record request: Tmax value, item [H]/N=C(/N)c1ccc(NCc2nc3cc(C(=O)N(CCC(=O)O)c4ccccn4)ccc3n2C)cc1
Reply: 3

###

Assay type: in vivo, human
Conditions: human, plasma, po, 150 mg
experimental_readout: Cmax (ng/mL)
Lab book: enter the figure in ng/mL, no units written.

Query: Record request: Cmax value, item [H]/N=C(/N)c1ccc(NCc2nc3cc(C(=O)N(CCC(=O)O)c4ccccn4)ccc3n2C)cc1
Reply: 71.4

###

Type: in vivo, human
Conditions: human, plasma, po, 150 mg
experimental_readout: Tmax (h)
Lab book: enter the figure in h, no units written.

Query: Record request: Tmax value, item [H]/N=C(/N)c1ccc(NCc2nc3cc(C(=O)N(CCC(=O)O)c4ccccn4)ccc3n2C)cc1
Reply: 2.03

###

Assay type: in vivo, human
Settings: human, plasma, po, 600 mg
experimental_readout: Cmax
Include the unit after the number when you answer.

Query: Record request: Cmax value, item [H]/N=C(/N)c1ccc(NCc2nc3cc(C(=O)N(CCC(=O)O)c4ccccn4)ccc3n2C)cc1 [dabigatran]
Reply: 281 ng/mL
